- test-target: UniProt P08842
measure-name: IC50

Query (compound): NC(=O)c1ccc(C(F)(F)F)cc1N1CCC(NS(=O)(=O)NC(=O)c2cc(C(F)(F)F)cc(C(F)(F)F)c2)CC1 [Example 1] ; field requested: IC50
30 to 270 nM

###

- test-target: purified human steroid sulfatase (Homo sapiens)
- Construct: Human placenta is obtained freshly after delivery
- Sequence (P08842 22-583): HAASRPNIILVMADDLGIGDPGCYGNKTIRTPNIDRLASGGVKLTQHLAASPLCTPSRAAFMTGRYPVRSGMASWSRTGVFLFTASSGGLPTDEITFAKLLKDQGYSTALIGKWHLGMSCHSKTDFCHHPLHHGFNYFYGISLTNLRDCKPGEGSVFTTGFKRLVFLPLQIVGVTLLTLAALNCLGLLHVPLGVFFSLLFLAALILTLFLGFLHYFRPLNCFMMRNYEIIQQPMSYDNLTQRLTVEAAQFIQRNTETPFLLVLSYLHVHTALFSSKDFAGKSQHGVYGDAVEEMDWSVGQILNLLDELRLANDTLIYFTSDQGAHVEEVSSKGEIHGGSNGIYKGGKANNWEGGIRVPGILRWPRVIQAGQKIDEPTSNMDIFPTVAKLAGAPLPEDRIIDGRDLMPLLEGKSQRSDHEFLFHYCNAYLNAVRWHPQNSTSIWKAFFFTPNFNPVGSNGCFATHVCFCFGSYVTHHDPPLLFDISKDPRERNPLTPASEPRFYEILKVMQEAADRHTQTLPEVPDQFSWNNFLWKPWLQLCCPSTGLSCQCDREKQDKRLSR
- protocol-text: Assay of Human Steroid Sulfatase (4-methylumbelliferyl sulfate cleavage, fluorescence)
- conditions-used: purified human placental enzyme; 4-methylumbelliferyl sulfate substrate; 37° C., 1 hour
pIC50: −log10 of the molar value.
measure-name: pIC50

Query (compound): CC12CCC3c4ccc(OS(N)(=O)=O)cc4CCC3C1CCC2=O (stereo not shown) [estrone sulfamate] ; field requested: pIC50
~7.22

Attribution: patent US7439362B2
